Tested on: HMLE_sh_eGFP viability, CellTiter-Glo luminescence, 72 h
Test: cytotoxicity in HMLE control line with eGFP shRNA, dose response, counter-screen for HMLE_sh_ECad selective toxicity project, cell-based, HMLE_sh_eGFP, luminescence (AID 463074);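 note: counterscreen control line to flag general toxicity for the HMLE_sh_ECad screen; potency for loss of viability as luminescence drops below DMSO wells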
metric-name: AC50

> print(dat)
                                smiles.code  metric.name  reported.measurement
1  C/C(=N/Nc1ccc([N+](=O)[O-])cc1)c1ccc(C)cc1C         AC50               7.68 µM
2  Cc1cccc(-n2cc(-c3ccccc3)c3c(N4CCOCC4)ncnc32)c1         AC50               4.59 µM
3              Oc1ccc(N=Nc2ccc3ccccc3c2)cc1         AC50               7.43 µM

====

System: HMLE_sh_eGFP viability, CellTiter-Glo luminescence, 72 h
Assay: cytotoxicity in HMLE control line with eGFP shRNA, dose response, counter-screen for HMLE_sh_ECad selective toxicity project, cell-based, HMLE_sh_eGFP, luminescence (AID 463074)
The source made the active and inactive calls.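 Rule for the calls: active = AC50 no more than tenfold above the top dose tested, or full inhibition at every dose with a flat fit (cut at about 19 µM in these data); inconclusive = flat curve fit with inhibition between 30% and 70%, or poor fit; inactive = AC50 more than tenfold above the top dose tested.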
Outcomes: true (active), false (inactive)

> print(dat)
                                    molecule    cat
 1    CCCSc1nsc(NC(=O)C(c2ccccc2)c2ccccc2)n1   true
 2  C=C(C(=O)c1ccccc1)C(C)C(=C)C(=O)c1ccccc1   true
 3  Cc1onc(-c2c(Cl)cccc2Cl)c1C(=O)NNc1ccccc1   true
 4  Cc1cccc(-c2nc(Nc3cccc(O)c3)c3ccccc3n2)c1   true
 5  N#Cc1c(NC(=O)c2ccc(Cn3cc(Br)cn3)o2)sc2c1CCCCC2   true
 6     COc1ccc2sc(-c3ccc(SC)cc3)c(C#CCO)c2c1   true
 7  CCCN(CCC)CCNC(=O)c1cc2c(-c3ccc(Cl)cc3)nn(C)c2s1   true
 8  CCCC[C@@H](CN[C@H](C)CNC)NCC1CCC(C(C)(C)C)CC1 (stereo not given in full)   true
 9   c1ccc(-c2c3ccccc3nc3[nH]c4ccccc4c23)cc1   true
10  O=C(Nc1ccc(Br)cn1)c1cccc(-c2cc3ccccc3oc2=O)c1   true
11  CC/C(=N/NC(=O)c1ccccc1O)c1c(C)[nH]n(-c2ccccc2)c1=O   true
12  Cc1ccc(-n2nnnc2Sc2ccc(S(=O)(=O)NCCN(C)C)cc2[N+](=O)[O-])cc1   true
13    O=C(CSCc1cccc(Cl)c1)Nc1ccccc1-c1ccccc1  false
14  OC(CNCCc1ccc(C(F)(F)F)cc1)COc1ccc2ccccc2c1 (stereo not given)   true
15  CN(C)CCNc1nc2sc3c(c2c(=O)n1-c1ccccc1)CCCCC3   true

====

Tested on: HMLE_sh_eGFP viability, CellTiter-Glo luminescence, 72 h
Assay: cytotoxicity in HMLE control line with eGFP shRNA, dose response, counter-screen for HMLE_sh_ECad selective toxicity project, cell-based, HMLE_sh_eGFP, luminescence (AID 463074);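 note: counterscreen control line to flag general toxicity for the HMLE_sh_ECad screen; potency for loss of viability as luminescence drops below DMSO wells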
Active and inactive are the calls of the source.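 Rule for the calls: active = AC50 no more than tenfold above the top dose tested, or full inhibition at every dose with a flat fit (cut at about 19 µM in these data); inconclusive = flat curve fit with inhibition between 30% and 70%, or poor fit; inactive = AC50 more than tenfold above the top dose tested.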
Outcomes: active, inactive

> print(dat)
                                smiles.code       cat
1  CCCCCCCCCCS(=O)(=O)N/N=C/c1ccc([N+](=O)[O-])cc1    active
2  O=C(Cc1ccc(Cl)cc1)Nc1ccc2c(c1)C(=O)NC2=O  inactive
3  O=C1/C(=C\c2cccc(O)c2O)SC(=S)N1Cc1ccccc1    active

====

Test system: HMLE_sh_eGFP viability, CellTiter-Glo luminescence, 72 h
Test: cytotoxicity in HMLE control line with eGFP shRNA, dose response, counter-screen for HMLE_sh_ECad selective toxicity project, cell-based, HMLE_sh_eGFP, luminescence (AID 463074);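 note: counterscreen control line to flag general toxicity for the HMLE_sh_ECad screen; potency for loss of viability as luminescence drops below DMSO wells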
metric-name: AC50

> print(dat)
                                   molecule                           target.of.assay  reported.measurement
1  CC1(C)CC2CC(C)(CN2/C=N/c2sc3c(c2C#N)CC(C)(C)NC3(C)C)C1 (stereo not drawn)  HMLE_sh_eGFP viability, CellTiter-Glo luminescence, 72 h               2.59 µM
2  COc1ccc(N=C2NN=C(c3c(C)[nH]c4ccccc34)CS2)cc1  HMLE_sh_eGFP viability, CellTiter-Glo luminescence, 72 h               7.77 µM
3  COc1ccccc1/C=C1\S/C(=N/NC(=O)c2cccc(Br)c2)NC1=O  HMLE_sh_eGFP viability, CellTiter-Glo luminescence, 72 h               8.09 µM

====

Tested on: HMLE_sh_eGFP viability, CellTiter-Glo luminescence, 72 h
Assay: cytotoxicity in HMLE control line with eGFP shRNA, dose response, counter-screen for HMLE_sh_ECad selective toxicity project, cell-based, HMLE_sh_eGFP, luminescence (AID 463074);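 note: counterscreen control line to flag general toxicity for the HMLE_sh_ECad screen; potency for loss of viability as luminescence drops below DMSO wells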
Activity calls are given as the source filed them.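 Rule for the calls: active = AC50 no more than tenfold above the top dose tested, or full inhibition at every dose with a flat fit (cut at about 19 µM in these data); inconclusive = flat curve fit with inhibition between 30% and 70%, or poor fit; inactive = AC50 more than tenfold above the top dose tested.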
The entries below are paired with their reported AC50.
metric-name: AC50

> print(dat)
                                    molecule  metric.name  reported.measurement
 1  CNC(=O)c1c(NC(=O)c2ccc(S(=O)(=O)N3CCCc4ccccc43)cc2)sc2c1CCN(C)C2         AC50              0.987 µM
 2  O=C(NC12CC3CC(CC(C3)C1)C2)c1ccc(-c2ccccc2Cl)o1         AC50               3.81 µM
 3  Cc1cc(Nc2cccc([N+](=O)[O-])c2)n2c(nc3ccccc32)c1C#N         AC50               9.61 µM
 4  N=c1c2c(ncn1Cc1ccco1)Oc1ccc3ccccc3c1C2c1ccccc1 (stereo not drawn)         AC50                4.5 µM
 5  CCOC(=O)c1c(-c2ccc(Cl)cc2)csc1NC(=O)CNCc1ccco1         AC50                5.2 µM
 6  COc1ccc(OC)c(NC(=O)NNC(=O)COc2ccc(-c3ccccc3)cc2)c1         AC50  > 19.5 µM (inactive)
 7  CCN(CC)c1ccc(S(=O)(=O)Nc2cc(Cl)ccc2Cl)cc1NC(=S)NC(=O)C1CCCC1         AC50               2.06 µM
 8  C/C(=N\NC(=S)Nc1ccc(F)cc1)c1ccc2c(c1)OCCO2         AC50               2.36 µM
 9  CC1=C(/C=C/C(C)=C/C=C/C(C)=C/C(=O)Nc2ccc(O)cc2)C(C)(C)CCC1         AC50               2.26 µM
10  Cc1ccc2c(c1)c1ncn(CCC3=CCCCC3)c(=O)c1n2C         AC50               1.09 µM
11  O=C(Cn1ncc(Cl)c(Cl)c1=O)N1CCN(S(=O)(=O)c2ccc3ccccc3c2)CC1         AC50               6.11 µM
12  Cc1sc(-n2c(C)cc(/C=C3\SC(=S)NC3=O)c2C)c(C#N)c1C         AC50               4.72 µM
13  Cc1cccc(NC(=S)N/N=C/c2ccc([N+](=O)[O-])s2)c1         AC50               6.78 µM
14   O=C1NN(c2cccc(Br)c2)C(=O)/C1=C\c1ccccc1         AC50               6.97 µM
15  COc1cc(CNC(C)c2ccccc2)cc(Br)c1OCc1ccccc1 (stereo not drawn)         AC50               6.75 µM
16  Cc1ccc(C)c(Cc2c(C)nc3c(C(=O)NCc4ccc5c(c4)OCO5)cnn3c2C)c1         AC50                 19 µM
17  COC(=O)C1C(=O)C2=C(CC1C)NC(=O)CC2c1cccc(C)c1 (stereo not drawn)         AC50  > 19.5 µM (inactive)
18  CC(=O)Nc1ccc(OCC(O)CN2CCN(c3cc(Cl)ccc3C)CC2)cc1 (stereo not drawn)         AC50               5.17 µM
19  O=C(N/N=C/c1cc([N+](=O)[O-])ccc1O)c1c[nH]c2ccccc12         AC50               16.5 µM
20  CCOc1cc(N2CCOCC2)c(OCC)cc1NC(=O)CN1CCC(Cc2ccccc2)CC1         AC50               2.43 µM
21  Cc1nn(-c2ccccc2)c(C)c1/C=N/n1c(-c2ccc(C(C)(C)C)cc2)n[nH]c1=S         AC50               6.74 µM
22                Cc1cccc(N/N=C/c2ccccc2O)c1         AC50               18.6 µM
23  CCCC(=O)NC(c1ccc2c(c1)OCO2)c1cc(Cl)c2cccnc2c1O (stereo not drawn)         AC50                3.1 µM
24  O=S(=O)(Nc1nc2ccccc2nc1N1CCN(c2ccccc2F)CC1)c1ccc(Cl)cc1         AC50                5.8 µM
25    COc1ccccc1-c1sc2ccccc2c1C#CC1(O)CCCCC1         AC50               10.8 µM
26  O=C(Nc1cccc(Cl)c1)Nc1csc([N+](=O)[O-])c1         AC50               5.64 µM
27  CCN(c1ccc(NC(=O)CCc2nc3sc4c(c3c(=O)[nH]2)CCCC4)cc1)C(C)C         AC50               9.45 µM
28  O=[N+]([O-])c1cc(S(=O)(=O)C(F)(F)F)ccc1Sc1nc2ccccc2[nH]1         AC50               4.46 µM
29  Oc1cccc(C(O)CNCc2ccc(OCc3ccc(Cl)cc3Cl)cc2)c1 (stereo not drawn)         AC50               7.09 µM
30  O=[N+]([O-])c1cccc(-c2cc(-c3cc(Br)ccc3O)[nH]n2)c1         AC50               7.53 µM
31  CC(C)C(=O)NC(c1ccccc1)c1cc([N+](=O)[O-])c2cccnc2c1O (stereo not drawn)         AC50               5.91 µM
32  COc1cc(-c2ccc3oc(-c4cccc(C)c4)c(C#CC4(O)CCCCC4)c3c2)cc(OC)c1OC         AC50               15.4 µM
33  Cc1ccc(C)c(N2CCN(C(=O)c3ccc4c(c3)c(C)c(C)n4C)CC2)c1         AC50               9.07 µM
